I'd be grateful if you could share measured pKd for these entries.
target: T1, AFP158/HLA-A*02:01 complex (human); test: SPR, crude scFv captured, pMHC analyte;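 note: pMHC analyte injected at three concentrations, association phase of one hundred seconds, then running buffer for dissociation, rates fitted from both curves, KD derived from the rates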
T1 construct: flowed as analyte in SPR
One number for each entry, as −log10 of the molar value.

The following binders have reported results that may help.
binder	measured-quantity	test-result
AS170036 VL1VH1-57M108S (scFv, also called 30-AS170036 VL1VH1-57M108S) scFv: QSALTQPRSVSGSPGQSVTISCAGTSSDVGSENYVSWYQQHPGKAPKLMIYQVNKRASGVPDRFSGSKSGNTASLTISGLQAEDEADYYCASYRSSDHNIVFGGGTKLTVLGGGGSGGGGSGGGGSEVQLVESGGGLVQPGGSLRLSCAASGFTFSSYAMSWVRQAPGKGLEWVSTINSGTGMPYYADSVKGRFTISRDNSKNTLYLQMNSLRAEDTAVYYCAKNFFDGSWFLSPPAMDYWGQGTLVTVSSHHHHHH	pKd	7.48
AS170036 VL1VH1-56N108S (scFv, also called 21-AS170036 VL1VH1-56N108S) scFv: QSALTQPRSVSGSPGQSVTISCAGTSSDVGSENYVSWYQQHPGKAPKLMIYQVNKRASGVPDRFSGSKSGNTASLTISGLQAEDEADYYCASYRSSDHNIVFGGGTKLTVLGGGGSGGGGSGGGGSEVQLVESGGGLVQPGGSLRLSCAASGFTFSSYAMSWVRQAPGKGLEWVSTINSGTNSPYYADSVKGRFTISRDNSKNTLYLQMNSLRAEDTAVYYCAKNFFDGSWFLSPPAMDYWGQGTLVTVSSHHHHHH	pKd	7.49
AS170036 VL1VH1-98I108S (scFv, also called 36-AS170036 VL1VH1-98I108S) scFv: QSALTQPRSVSGSPGQSVTISCAGTSSDVGSENYVSWYQQHPGKAPKLMIYQVNKRASGVPDRFSGSKSGNTASLTISGLQAEDEADYYCASYRSSDINIVFGGGTKLTVLGGGGSGGGGSGGGGSEVQLVESGGGLVQPGGSLRLSCAASGFTFSSYAMSWVRQAPGKGLEWVSTINSGTGSPYYADSVKGRFTISRDNSKNTLYLQMNSLRAEDTAVYYCAKNFFDGSWFLSPPAMDYWGQGTLVTVSSHHHHHH	pKd	7.54
AS170036 VL1VH1-57K98F (scFv, also called 10-AS170036 VL1VH1-57K98F) scFv: QSALTQPRSVSGSPGQSVTISCAGTSSDVGSENYVSWYQQHPGKAPKLMIYQVNKRASGVPDRFSGSKSGNTASLTISGLQAEDEADYYCASYRSSDFNIVFGGGTKLTVLGGGGSGGGGSGGGGSEVQLVESGGGLVQPGGSLRLSCAASGFTFSSYAMSWVRQAPGKGLEWVSTINSGTGKPYYADSVKGRFTISRDNSKNTLYLQMNSLRAEDTAVYYCAKNFFDGSWFLGPPAMDYWGQGTLVTVSSHHHHHH	pKd	7.72
AS170036 VL1VH1-98F108S (scFv, also called 33-AS170036 VL1VH1-98F108S) scFv: QSALTQPRSVSGSPGQSVTISCAGTSSDVGSENYVSWYQQHPGKAPKLMIYQVNKRASGVPDRFSGSKSGNTASLTISGLQAEDEADYYCASYRSSDFNIVFGGGTKLTVLGGGGSGGGGSGGGGSEVQLVESGGGLVQPGGSLRLSCAASGFTFSSYAMSWVRQAPGKGLEWVSTINSGTGSPYYADSVKGRFTISRDNSKNTLYLQMNSLRAEDTAVYYCAKNFFDGSWFLSPPAMDYWGQGTLVTVSSHHHHHH	pKd	7.59

Continue with the binder presented below.
So, AS170036 VL1VH1-56Y108A (scFv, also called 16-AS170036 VL1VH1-56Y108A) scFv: QSALTQPRSVSGSPGQSVTISCAGTSSDVGSENYVSWYQQHPGKAPKLMIYQVNKRASGVPDRFSGSKSGNTASLTISGLQAEDEADYYCASYRSSDHNIVFGGGTKLTVLGGGGSGGGGSGGGGSEVQLVESGGGLVQPGGSLRLSCAASGFTFSSYAMSWVRQAPGKGLEWVSTINSGTYSPYYADSVKGRFTISRDNSKNTLYLQMNSLRAEDTAVYYCAKNFFDGSWFLAPPAMDYWGQGTLVTVSSHHHHHH ? Its pKd was 8.33
